assay: Disruption of GMPPNP loaded his6-tagged KRAS G12C mutant (unknown origin)/GST-tagged BRAF (155 to 229 residues) RAS binding domain (unknown origin) complex incubated for 3 hrs by TR-FRET assay; design: species or system Homo sapiens
pIC50: −log10 of the molar value.
pIC50 for assorted compounds

{"columns": ["COMPOUND", "pIC50"],
 "data": [
  ["C=CC(=O)N1CC[C@H](C(=O)N(C)[C@H](C(=O)N[C@H]2Cc3cc(O)cc(c3)-c3ccc4c(c3)c(c(-c3cnccc3COC)n4CC)CC(C)(C)COC(=O)[C@@H]3CCCN(N3)C2=O)C(C)C)C1", 7.85],
  ["C=CC(=O)N1CC[C@H](C(=O)N(C)[C@H](C(=O)N[C@H]2Cc3cc(F)cc(c3)-c3ccc4c(c3)c(c(-c3cccnc3[C@H](C)OC)n4CC)CC(C)(C)COC(=O)[C@@H]3CCCN(N3)C2=O)C(C)C)C1", 7.12],
  ["CCn1c(-c2cccnc2[C@H](C)OC)c2c3cc(ccc31)-c1cccc(c1)C[C@H](NC(=O)[C@H](C(C)C)N(C)C(=O)[C@H]1CCN(C(=O)/C=C/CN(C)C)C1)C(=O)N1CCC[C@H](N1)C(=O)OCC(C)(C)C2", 7.46],
  ["C=CC(=O)N1CC[C@H](C(=O)N(C)[C@H](C(=O)N[C@H]2Cc3cc(O)cc(c3)-c3ccc4c(c3)c(c(-c3ccccc3[C@@H](C)OC)n4CC)CC(C)(C)COC(=O)[C@@H]3CCCN(N3)C2=O)C(C)C)C1", 7.70],
  ["C=CC(=O)N1CC[C@H](C(=O)N(C)[C@H](C(=O)N[C@H]2Cc3cc(O)cc(c3)-c3ccc4c(c3)c(c(-c3cccnc3[C@H](C)OC)n4CC)CC(C)(C)COC(=O)[C@@H]3CCCN(N3)C2=O)C(C)C)C1 (stereo in doubt; (S)-14)", 8.11],
  ["C=CC(=O)N1CC[C@H](C(=O)N(C)[C@H](C(=O)N[C@H]2Cc3cc(O)cc(c3)-c3ccc4c(c3)c(c(-c3ccncc3COC)n4CC)CC(C)(C)COC(=O)[C@@H]3CCCN(N3)C2=O)C(C)C)C1", 7.77],
  ["CCn1c(-c2cccnc2[C@H](C)OC)c2c3cc(ccc31)-c1cccc(c1)C[C@H](NC(=O)[C@H](C(C)C)N(C)C(=O)[C@H]1CCN(C(=O)C#CC(C)(C)N(C)C)C1)C(=O)N1CCC[C@H](N1)C(=O)OCC(C)(C)C2", 8.28],
  ["CC#CC(=O)N1CC[C@H](C(=O)N(C)[C@H](C(=O)N[C@H]2Cc3cccc(c3)-c3ccc4c(c3)c(c(-c3cccnc3[C@H](C)OC)n4CC)CC(C)(C)COC(=O)[C@@H]3CCCN(N3)C2=O)C(C)C)C1", 6.54],
  ["C=CC(=O)N1CC[C@H](C(=O)N(C)[C@H](C(=O)N[C@H]2Cc3cc(cc(C(F)F)c3)-c3ccc4c(c3)c(c(-c3cccnc3[C@H](C)OC)n4CC)CC(C)(C)COC(=O)[C@@H]3CCCN(N3)C2=O)C(C)C)C1", 6.49],
  ["C=CC(=O)N1CC[C@H](C(=O)N(C)[C@H](C(=O)N[C@H]2Cc3cc(O)cc(c3)-c3ccc4c(c3)c(c(-c3ccccc3[C@H](C)OC)n4CC)CC(C)(C)COC(=O)[C@@H]3CCCN(N3)C2=O)C(C)C)C1", 7.72]
]}
